Target: human TLR7 (Homo sapiens (Human), UniProt Q9NYK1)
Sequence (Q9NYK1 27-1049): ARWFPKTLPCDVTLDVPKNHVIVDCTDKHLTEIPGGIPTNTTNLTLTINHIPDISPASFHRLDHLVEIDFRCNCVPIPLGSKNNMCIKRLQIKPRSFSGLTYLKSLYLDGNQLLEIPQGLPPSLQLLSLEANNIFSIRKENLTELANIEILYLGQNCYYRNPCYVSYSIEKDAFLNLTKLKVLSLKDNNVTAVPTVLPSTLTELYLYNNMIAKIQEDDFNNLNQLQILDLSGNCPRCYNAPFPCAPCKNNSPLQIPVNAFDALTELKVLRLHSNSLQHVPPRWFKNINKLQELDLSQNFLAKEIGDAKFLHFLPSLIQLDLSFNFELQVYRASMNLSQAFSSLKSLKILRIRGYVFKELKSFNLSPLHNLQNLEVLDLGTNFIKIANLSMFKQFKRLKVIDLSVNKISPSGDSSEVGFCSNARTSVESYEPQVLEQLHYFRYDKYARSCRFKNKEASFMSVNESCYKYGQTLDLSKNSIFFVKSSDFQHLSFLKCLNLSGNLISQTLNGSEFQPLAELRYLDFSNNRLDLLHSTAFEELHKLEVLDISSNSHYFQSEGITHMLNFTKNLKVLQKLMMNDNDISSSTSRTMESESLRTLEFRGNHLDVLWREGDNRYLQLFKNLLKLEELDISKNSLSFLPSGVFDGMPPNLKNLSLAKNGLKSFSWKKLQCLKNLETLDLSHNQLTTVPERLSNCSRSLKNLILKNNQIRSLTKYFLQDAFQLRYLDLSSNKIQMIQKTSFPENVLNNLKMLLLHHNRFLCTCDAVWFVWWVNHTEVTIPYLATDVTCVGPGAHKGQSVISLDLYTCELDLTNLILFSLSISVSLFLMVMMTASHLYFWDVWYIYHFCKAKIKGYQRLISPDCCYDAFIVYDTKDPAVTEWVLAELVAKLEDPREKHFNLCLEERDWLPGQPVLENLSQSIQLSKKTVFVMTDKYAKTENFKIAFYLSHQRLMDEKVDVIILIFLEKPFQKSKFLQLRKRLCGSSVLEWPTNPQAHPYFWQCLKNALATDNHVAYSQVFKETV
Assay: TLR7 inhibition reporter assay (HEK-Blue cells, SEAP reporter, gardiquimod stimulation)
Assay type: cell-based
Conditions: HEK-Blue cells overexpressing human TLR7, gardiquimod 7.5 μM
Entries and their measured IC50 follow.

# test-smiles, IC50 [µM]
records = [
    ("Cc1cc(-c2[nH]c3ccc(C4CCN(Cc5nncn5C)CC4)cc3c2C(C)C)c(C)cn1", 0.0423),
    ("FC(F)Cc1c(-c2ccnc(Cl)c2)[nH]c2ccc(C3CCNCC3)cc12", 0.0365),
    ("Cc1cc(-c2[nH]c3ccc(C4CCN(C(=O)[C@H]5CC[C@H](N)CC5)CC4)cc3c2C(C)C)ccn1", 0.174),
]
